Below, each entry is listed with its recorded IC50.
# TARGET: human CXCR3 (N-delta 4) (Homo sapiens)
# Construct: CD8 leader; Flag tag; expressed in transfected cells; membranes used
# Sequence (P49682 5-368 limits assumed): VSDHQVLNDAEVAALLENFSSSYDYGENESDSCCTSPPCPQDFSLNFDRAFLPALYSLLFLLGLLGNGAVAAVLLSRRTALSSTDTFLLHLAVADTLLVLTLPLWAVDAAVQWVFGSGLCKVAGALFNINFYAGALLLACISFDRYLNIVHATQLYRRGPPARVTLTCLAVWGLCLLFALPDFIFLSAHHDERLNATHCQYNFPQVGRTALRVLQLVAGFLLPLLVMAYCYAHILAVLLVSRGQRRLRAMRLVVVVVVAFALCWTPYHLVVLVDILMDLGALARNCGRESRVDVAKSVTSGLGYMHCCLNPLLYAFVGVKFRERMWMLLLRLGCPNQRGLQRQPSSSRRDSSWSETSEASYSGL
# PROTOCOL_DESCRIPTION: Human CXCR3 (N-delta 4) scintillation proximity assay (SPA), [125I] IP-10 binding
# SETTINGS: IC50 rating; Ba/F3-hCXCR3 (N-delta 4) membranes, 25 pM [125I] IP-10

[[record]]
compound = "CNC(=O)c1cnc(N2CCN(C3CCN(C(=O)c4ccc(Cl)cc4)CC3)[C@@H](C)C2)c(Cl)c1"
measurement = "> 0.1 µM"


Q: Value lookup for IC50; key = O=C(NCC1COc2ccccc2O1)c1cnc(N2CCN(C3CCN(Cc4ccc(Cl)cc4)CC3)CC2)c(Br)c1 (centres unmarked)
Result: > 0.1 µM

Q: Value lookup for IC50; key = `O=C(NCC1CCCCC1)c1cnc(N2CCN(C3CCN(Cc4ccc(Cl)cc4)CC3)CC2)c(Cl)c1`
Result: 0.025 to 0.1 µM

Q: Value lookup for IC50; key = `CCNC(=O)c1cnc(N2CCN(C3CCN(Cc4ccc(Cl)cc4)CC3)[C@@H](C(C)C)C2)c(Cl)c1`
Result: < 0.025 µM
